B1: ALKBH7 (parent)
chain: SVICRSLPEGMGPGESGQPPPAC

Variants of: B1
assay-summary: protein stability index of a GFP-peptide fusion (GPS, HEK-293T) (PSI 1-6); higher = more stable;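 note: lentivirally expressed fusions sorted by FACS into six bins by GFP to DsRed ratio, PSI derived from sequencing read proportions per bin multiplied by bin number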
stated-conditions: c terminus: native
measure: protein stability index
Output: the number by itself.

# annotated cases, reported protein stability index shown
C4A : 3.06
C23R : 4.76
I3S : 2.51
A22I : 3.19
S1M : 1.47

Per the records, this variant ( G17K ) has protein stability index equal to 2.94
